For each entry below, report its TGI value.
- Test system: HOP-92 NSCLC
- assay_method_text: NCI tumour cell line growth inhibition, 48 h
// note: answer is a bare numeric in µM

Problem: Reported TGI for HOP-92 NSCLC, given CN1CCN(CCCOc2ccc3ncnc(Nc4ccc(Oc5cccc(C(F)(F)F)c5)c(Cl)c4)c3c2)CC1 ?
Result: 3.9

Problem: Reported TGI for HOP-92 NSCLC, given N#C/C(=C\c1ccc(Br)cc1)n1nnc2cc(F)c(F)cc21 ?
Result: 4.15

Problem: Reported TGI for HOP-92 NSCLC, given O=S(=O)(NCCNc1cc(-c2cn(-c3ccccc3)nc2-c2cccc(O)c2)ccn1)c1ccc(F)cc1 ?
Result: 8.48

Problem: Reported TGI for HOP-92 NSCLC, given N#CCc1[nH]nc2nc(SCc3ccccc3)nc(N3CCCCC3)c12 ?
Result: 31.6

Problem: Reported TGI for HOP-92 NSCLC, given CC(=O)Oc1cc2c(=O)oc3c(OC(C)=O)c(OC(C)=O)c(OC(C)=O)c4c(=O)oc(c1OC(C)=O)c2c34 ?
Result: 96.9

Problem: Reported TGI for HOP-92 NSCLC, given CC1=C(N(C)C)C(=O)c2nc3n(c2C1=O)CCC3OC(N)=O (stereo not drawn) ?
Result: 28.2

Problem: Reported TGI for HOP-92 NSCLC, given COc1cc2c3c(n(CCCn4ccnc4)c(=O)c2cc1OC)-c1ccccc1C3=O ?
Result: 3

Problem: Reported TGI for HOP-92 NSCLC, given N=C(N)C(N=Nc1ccccc1)C(=N)N (stereo not drawn) ?
Result: 83.9

Problem: Reported TGI for HOP-92 NSCLC, given CCOC(=O)c1ccc2[nH]c(Cc3[nH]c4ccc(C(=O)OCC)cc4c3C)c(C)c2c1 ?
Result: 8.99

Problem: Reported TGI for HOP-92 NSCLC, given Cc1c2c(cc3c1[nH]c1ccccc13)C(c1ccc(F)cc1)=NCC2 ?
Result: 7.27

Problem: Reported TGI for HOP-92 NSCLC, given CCC[CH2][Sn]([CH2]CCC)([O]C(=O)c1cccc(F)c1F)[O][Sn]([CH2]CCC)([CH2]CCC)[O]C(=O)c1cccc(F)c1F ?
Result: 0.399

Problem: Reported TGI for HOP-92 NSCLC, given O=C1c2scnc2-c2nccc3c2c1nc1ccccc13 ?
Result: 4.85

Problem: Reported TGI for HOP-92 NSCLC, given C=C1C(=O)O[C@H]2[C@H]1CC/C(Cn1cc(Cn3ccc4cc(Cl)ccc43)nn1)=C\CC[C@@]1(C)O[C@@H]21 ?
Result: 1.74

Problem: Reported TGI for HOP-92 NSCLC, given C=C1C(=O)O[C@H]2[C@H]1CC/C(COC(=O)N[C@@H](Cc1c[nH]c3ccccc13)C(=O)OC)=C\CC[C@@]1(C)O[C@@H]21 ?
Result: 2.98

Problem: Reported TGI for HOP-92 NSCLC, given N#C/C(=C\c1ccc(Cl)cc1)n1nnc2cc(F)c(F)cc21 ?
Result: 2.56

Problem: Reported TGI for HOP-92 NSCLC, given O=C(CSc1nc2sc3c(c2c(=O)n1-c1ccccc1)CCCCC3)N/N=C/c1ccc(F)cc1 ?
Result: 8.65

Problem: Reported TGI for HOP-92 NSCLC, given C/C=C/C/C=C/CCC(=O)C1OC1C(N)=O (stereo not drawn) ?
Result: 29.4

* * *

For each entry below, report its TGI value.
- System: SF-268 CNS
- assay_method_text: NCI tumour cell line growth inhibition, 48 h
// note: answer is a bare numeric in µM

Problem: Consider the compound CCC[C@H](Nc1nc(-c2ccc(NC(=O)NCC)c(OC)c2)ncc1C)c1cccnc1 and give its measured TGI.
Result: 14.7

Problem: Consider the compound O=C1CS(=O)(=O)C(c2cccc(Oc3ccccc3)c2)N1c1cccc(Cl)c1Cl (centres undefined) and give its measured TGI.
Result: 55.2

Problem: Consider the compound CN1CCN(CCCOc2ccc3ncnc(Nc4ccc(Oc5cccc(C(F)(F)F)c5)c(Cl)c4)c3c2)CC1 and give its measured TGI.
Result: 3.12

Problem: Consider the compound CC1=C(N(C)C)C(=O)c2nc3n(c2C1=O)CCC3OC(N)=O (centres undefined) and give its measured TGI.
Result: 34.6

* * *

- Tested on: SK-OV-3 ovarian
- assay_method_text: NCI tumour cell line growth inhibition, 48 h
For each entry below, report its TGI value.
// note: answer is a bare numeric in µM

Problem: Reported TGI for SK-OV-3 ovarian, given N#CCc1[nH]nc2nc(SCc3ccccc3)nc(N3CCCCC3)c12 ?
Result: 45.7

Problem: Reported TGI for SK-OV-3 ovarian, given Cc1cc(Nc2nc(N3CCOCC3)nc3ccccc23)n[nH]1 ?
Result: 40.9

Problem: Reported TGI for SK-OV-3 ovarian, given COc1cc(/C=C/C(=O)CC(=O)/C=C/c2ccc(OC(=O)CCNC34CC5CC(CC(C5)C3)C4)c(OC)c2)ccc1OC(=O)CCNC12CC3CC(CC(C3)C1)C2 ?
Result: 27.2

Problem: Reported TGI for SK-OV-3 ovarian, given Cc1ccc(S(=O)(=O)Oc2coc(CO)cc2=O)cc1 ?
Result: 37.7

Problem: Reported TGI for SK-OV-3 ovarian, given CCCCCCCCO/N=C\c1c2c(O)c3c(O)c(C)c4c(c3c1O)C(=O)C(C)(O/C=C\C(OC)C(C)C(OC(C)=O)C(C)C(O)C(C)C(O)C(C)/C=C\C=C(\C)C(=O)N2)O4 (configuration not stated) ?
Result: 6.68

Problem: Reported TGI for SK-OV-3 ovarian, given CCOC(=O)c1ccc2[nH]c(Cc3[nH]c4ccc(C(=O)OCC)cc4c3C)c(C)c2c1 ?
Result: 16.6

Problem: Reported TGI for SK-OV-3 ovarian, given O=c1[nH]c2nccn2c(Cl)c1Br ?
Result: 86.9

Problem: Reported TGI for SK-OV-3 ovarian, given CCN(CC)CCN1CCN=c2c3cc(OC)ccc3n3cnc4ccc1c2c43 ?
Result: 5.16

Problem: Reported TGI for SK-OV-3 ovarian, given CCC[C@H](Nc1nc(-c2ccc(NC(=O)NCC)c(OC)c2)ncc1C)c1cccnc1 ?
Result: 15

* * *

- Tested on: M19-MEL melanoma
- assay_method_text: NCI tumour cell line growth inhibition, 48 h
assay_metric: TGI

Problem: Consider the compound C=CCOCCCC(=O)C(=[N+]=[N-])C(=O)OC and give its measured TGI.
Result: > 100 µM

Problem: Consider the compound Cc1ccc(NC(=O)/C(=N/NC(=O)CC#N)C2C(=O)N(c3ccccc3)N=C2N)cc1C (stereo not drawn) and give its measured TGI.
Result: > 100 µM

Problem: Consider the compound Cc1nc2c(s/c(=N\N)n2-c2ccccc2)c(=O)[nH]1 and give its measured TGI.
Result: > 100 µM

Problem: Consider the compound S=C(NCCCCCCNC(=S)Nc1c2ccccc2nc2ccccc12)Nc1c2ccccc2nc2ccccc12 and give its measured TGI.
Result: > 100 µM

Problem: Consider the compound Cc1c(C(=O)Nc2ccc(Cl)c(C(F)(F)F)c2)oc2cc(O)ccc2/c1=N\NC(N)=S and give its measured TGI.
Result: > 100 µM

Problem: Consider the compound Cc1nc(Nc2ccccc2)sc1C(=O)NNC(N)=O and give its measured TGI.
Result: > 100 µM

Problem: Consider the compound CC[N+](CC)(CC)Cc1cn(S(=O)(=O)c2ccccc2)c2ccccc12 and give its measured TGI.
Result: > 100 µM

Problem: Consider the compound O=C1CC(c2ccccc2)NCN1 (stereo not drawn) and give its measured TGI.
Result: > 100 µM

Problem: Consider the compound COc1ccc2c(c1)CC1NC2Cc2ccccc21 (stereo not drawn) and give its measured TGI.
Result: > 100 µM

Problem: Consider the compound CCC12CC[C@H](C#N)N3CCc4c(n(c5ccccc45)C(=O)C1)C32 (stereo partly drawn) and give its measured TGI.
Result: 73.2 µM

Problem: Consider the compound Nc1nc(F)nc2c1ncn2C1OC(COP(=O)(O)O)C(O)C1O (stereo not drawn) and give its measured TGI.
Result: 877 µM

Problem: Consider the compound c1ccc2c(NCCCCCCCCNc3cccc4ccccc34)cccc2c1 and give its measured TGI.
Result: > 10 µM

Problem: Consider the compound C/C=C/CP(=O)(c1ccccc1)c1ccccc1 and give its measured TGI.
Result: > 100 µM

* * *

- System: A498 renal
- assay_method_text: NCI tumour cell line growth inhibition, 48 h
For each entry below, report its TGI value.

Problem: Consider the compound c1ccc2c(c1)n1c(N3CCOCC3)[n+]3ccccc3c1c1c3cccc[n+]3c(N3CCOCC3)n21 and give its measured TGI.
Result: > 100 µM

Problem: Consider the compound BrC12C3C4C5C(C(C43)C13OCCO3)C52 (stereo unspecified) and give its measured TGI.
Result: > 100 µM

Problem: Consider the compound COc1ccc(-c2cc(=O)c3c(O)c(OC)c(O)cc3o2)cc1O and give its measured TGI.
Result: 65.8 µM

Problem: Consider the compound Cn1cc(C(=O)/C(Cl)=C(\Cl)C(=O)O)c2ccccc21 and give its measured TGI.
Result: > 100 µM

Problem: Consider the compound CC(=O)Oc1cc2c(=O)oc3c(OC(C)=O)c(OC(C)=O)c(OC(C)=O)c4c(=O)oc(c1OC(C)=O)c2c34 and give its measured TGI.
Result: > 100 µM

Problem: Consider the compound NC(=O)CC1(O)C=CC(=O)C=C1 and give its measured TGI.
Result: > 100 µM
